# tgt: Glucose-dependent insulinotropic receptor (Homo sapiens) (UniProt Q8TDV5)
# Sequence (whole entry): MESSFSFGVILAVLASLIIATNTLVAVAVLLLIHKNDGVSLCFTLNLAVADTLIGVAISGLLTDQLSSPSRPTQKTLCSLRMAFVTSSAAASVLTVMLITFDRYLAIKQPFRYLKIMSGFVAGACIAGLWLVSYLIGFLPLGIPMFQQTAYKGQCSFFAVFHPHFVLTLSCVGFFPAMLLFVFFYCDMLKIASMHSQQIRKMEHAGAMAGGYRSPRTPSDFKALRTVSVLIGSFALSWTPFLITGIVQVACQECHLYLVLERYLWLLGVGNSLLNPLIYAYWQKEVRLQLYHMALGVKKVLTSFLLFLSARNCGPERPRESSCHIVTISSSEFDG
# experimental.details: Agonist activity at human recombinant GPR119 expressed in HEK293 cells co-expressing pCRE-Luc assessed as concentration required to showing equipotent efficacy to 2-(2-(4-bromophenyl)-6-methylpyrimidin-4-ylamino)ethanol after 6 hrs by cAMP reporter assay
# Type: functional, cell-based
measure.name: EC (nM)

Solved entries (count: 5):
{"substance.smiles": "CN(C)C(=O)C1CCN(c2nc(-c3cc(F)c(Cl)cc3F)nc3c2CS(=O)(=O)C3)CC1", "units": "nM", "EC": 350}
{"substance.smiles": "NC(=O)CCC1CCN(c2nc(-c3cc(F)c(Cl)cc3F)nc3c2CS(=O)(=O)C3)CC1", "units": "nM", "EC": 18}
{"substance.smiles": "O=S1(=O)Cc2nc(-c3cc(F)c(Cl)cc3F)nc(N3CCC(CCO)CC3)c2C1", "units": "nM", "EC": 2.8}
{"substance.smiles": "O=C(O)C1CCN(c2nc(-c3cc(F)c(Cl)cc3F)nc3c2CS(=O)(=O)C3)CC1", "units": "nM", "EC": 560}
{"substance.smiles": "Fc1cc(-c2nc3c(c(N4CCOCC4)n2)COC3)c(F)cc1Cl", "units": "nM", "EC": 4100}

(a) Fc1cc(-c2nc3c(c(N4CCOCC4)n2)SCC3)c(F)cc1Cl
(b) NC(=O)CC1CCN(c2nc(-c3cc(F)c(Cl)cc3F)nc3c2CS(=O)(=O)C3)CC1
Could you kindly indicate whether a or b has the higher EC value? Provide the label of your selected option as the answer.
a

###

# experimental.details: Clearance in human liver microsomes
# Type: ADME, Microsome
# applied.conditions: read-out: CLH
measure.name: CLint scaled (mL/min/kg)
Response body: numeric value in mL/min/kg, unit text excluded.

Kindly note the recorded CLint scaled for "NC(=O)CC1CCN(c2nc(-c3cc(F)c(Cl)cc3F)nc3c2CS(=O)(=O)C3)CC1" , which is 58

###

# tgt: Glucose-dependent insulinotropic receptor (Homo sapiens)
# experimental.details: Agonist activity at human recombinant GPR119 expressed in HEK293 cells co-expressing pCRE-Luc at 10 uM after 6 hrs by cAMP reporter assay relative to 2-(2-(4-bromophenyl)-6-methylpyrimidin-4-ylamino)ethanol
# Format: functional, cell-based
measure.name: Intrinsic activity (%)

{"substance.smiles": "O=S1(=O)Cc2nc(-c3cc(F)c(Cl)cc3F)nc(N3CCC(O)CC3)c2C1", "obs.value": 575}
{"substance.smiles": "Fc1cc(-c2nc3c(c(N4CCOCC4)n2)SCC3)c(F)cc1Cl", "obs.value": 426}
{"substance.smiles": "Fc1cc(-c2nc3c(c(N4CCOCC4)n2)CSC3)c(F)cc1Cl", "obs.value": 467}
{"substance.smiles": "NC(=O)CC1CCN(c2nc(-c3cc(F)c(Cl)cc3F)nc3c2CS(=O)(=O)C3)CC1", "obs.value": 483}
{"substance.smiles": "CNC(=O)C1CCN(c2nc(-c3cc(F)c(Cl)cc3F)nc3c2CS(=O)(=O)C3)CC1", "obs.value": 457}

###

# experimental.details: Solubility of compound at pH 6.8 after 20 hrs by precipitation method
# Type: physicochemical
# applied.conditions: buffer
Entries and their solubility kinetic at 20 h

Previously resolved entries follow.
{"substance.smiles": "NC(=O)CN1CCN(c2nc(-c3cc(F)c(Cl)cc3F)nc3c2CS(=O)(=O)C3)CC1", "solubility kinetic at 20 h": "> 100 µM"}
{"substance.smiles": "O=S1(=O)Cc2nc(-c3cc(F)c(Cl)cc3F)nc(N3CCOCC3)c2C1", "solubility kinetic at 20 h": "< 1 µM"}

// solubility kinetic at 20 h value for "CN(C)C(=O)C1CCN(c2nc(-c3cc(F)c(Cl)cc3F)nc3c2CS(=O)(=O)C3)CC1" : > 100 µM

###

# tgt: Glucose-dependent insulinotropic receptor (Homo sapiens)
# experimental.details: Agonist activity at human recombinant GPR119 expressed in HEK293 cells co-expressing pCRE-Luc assessed as concentration required to showing equipotent efficacy to 2-(2-(4-bromophenyl)-6-methylpyrimidin-4-ylamino)ethanol after 6 hrs by cAMP reporter assay
# Format: functional, cell-based
measure.name: EC (nM)

{"substance.smiles": "O=S1(=O)Cc2nc(-c3cc(F)c(Cl)cc3F)nc(N3CCC(O)CC3)c2C1", "tgt": "Glucose-dependent insulinotropic receptor (Homo sapiens)", "EC / nM": 14}

(a) CNC(=O)C1CCN(c2nc(-c3cc(F)c(Cl)cc3F)nc3c2CS(=O)(=O)C3)CC1
(b) Fc1cc(-c2nc3c(c(N4CCOCC4)n2)CCS3)c(F)cc1Cl
Compare EC: is it lower for a or for b ? Kindly give the label for the entry you pick.
a

(1) Fc1cc(-c2nc3c(c(N4CCOCC4)n2)CCC3)c(F)cc1Cl
(2) Fc1cc(-c2nc3c(c(N4CCOCC4)n2)CSC3)c(F)cc1Cl
(3) Fc1cc(-c2nc3c(c(N4CCOCC4)n2)CCCC3)c(F)cc1Cl
(4) NC(=O)CN1CCN(c2nc(-c3cc(F)c(Cl)cc3F)nc3c2CS(=O)(=O)C3)CC1
Please order the records by their reported EC, lowest number first. A ranking is expressed here by listing the labels in the requested order.
4, 2, 1, 3

(a) NC(=O)C1CCN(c2nc(-c3cc(F)c(Cl)cc3F)nc3c2CS(=O)(=O)C3)CC1
(b) O=S1(=O)Cc2nc(-c3cc(F)c(Cl)cc3F)nc(N3CCC(CO)CC3)c2C1
Endpoint returns whichever of a and b has the numerically higher EC. Please identify the chosen entry by its label.
a
(a: 21 nM, b: 3.9 nM)

# credit: ChEMBL document CHEMBL2157929
